Catalogue of molecules with associated AUC(0-inf)
- Assay summary: Pharmacokinetics after iv and oral administration, P‐S difference method, wild‐type mice
- Assay type: in vivo
- Condition description: male, FVB (wild-type), mouse, systemic plasma (abdominal vein), po, wild‐type mice; p.o. (ciprofloxacin 1, nitrofurantoin 2, topotecan 1, sulfasalazine 5 mg/kg); systemic (sys) plasma; read-out: AUC 0→∞ (AUCsys)
- Method: Male Mdr1a/1b(−/−) and Bcrp(−/−) mice, and WT mice of the same genetic background (FVB) were obtained from Taconic Farms (Germantown, NY, USA). […] Food and water were available ad libitum. […] After organic layer was evaporated at 60°C, the resultant residues were dissolved in a mobile phase. […] All drugs were analyzed by HPLC system (Shimadzu LC‐10AS pump, Shimadzu SIL‐10A autosampler) equipped with a reverse‐phase column (COSMOSIL 5C18‐AR‐II, 3.5‐μm […], 4.6 × 150 mm). […]
Expressed in µM·h, but write only the number.

Req: Sample O=C(O)c1cc(/N=N/c2ccc(S(=O)(=O)Nc3ccccn3)cc2)ccc1O — what was its AUC(0-inf)?
Resp: 1.94

Now let's try a different one.
Req: What does the record list as AUC(0-inf) for O=C1CN(/N=C/c2ccc([N+](=O)[O-])o2)C(=O)N1 ?
Resp: 1.83

====

- Assay summary: Pharmacokinetics after iv and oral administration, P‐S difference method, Bcrp(−/−) mice
- Format: in vivo
- Condition description: male, Bcrp(−/−) (FVB background), mouse, systemic plasma (abdominal vein), po
Measured endpoint: Tmax

Req: I'd like to know its Tmax. The compound in question is O=C(O)c1cc(/N=N/c2ccc(S(=O)(=O)Nc3ccccn3)cc2)ccc1O [sulfasalazine, Sulfasalazine]
Resp: 2 h

Here is the next item to consider.
Req: Which Tmax is listed for O=C1CN(/N=C/c2ccc([N+](=O)[O-])o2)C(=O)N1 [nitrofurantoin, Nitrofurantoin] ?
Resp: 0.17 h

====

- Assay summary: Pharmacokinetics after iv and oral administration, P‐S difference method, wild‐type mice
- Format: in vivo
- Condition description: male, FVB (wild-type), mouse, portal vein plasma, po, 1 mg/kg, wild‐type mice; p.o. (ciprofloxacin 1, nitrofurantoin 2, topotecan 1, sulfasalazine 5 mg/kg); portal vein (pv) plasma; read-out: AUC 0→∞ (AUCpv)
Where a name gives a salt, the structure may show the parent alone.
Measured endpoint: AUC(0-inf) (µM·h)
Reply with just the number (in µM·h).

Req: Would you kindly share the measured AUC(0-inf) for CC[C@@]1(O)C(=O)OCc2c1cc1n(c2=O)Cc2cc3c(CN(C)C)c(O)ccc3nc2-1 [topotecan, Topotecan HCl] ?
Resp: 0.577

====

- Assay summary: Pharmacokinetics after iv and oral administration, P‐S difference method, wild‐type mice
- Assay type: in vivo
- Condition description: male, FVB (wild-type), mouse, plasma (systemic, abdominal vein); wild‐type mice; iv 1 mg/kg; read-out: CL tot (converted)
Structures can show the parent of a compound that is named as a salt.
Measured endpoint: clearance

Sample records with clearance:
Req: Item under review: O=C1CN(/N=C/c2ccc([N+](=O)[O-])o2)C(=O)N1 . Reported clearance?
Resp: 38 mL/min/kg

Req: Which clearance value is on record for CC[C@@]1(O)C(=O)OCc2c1cc1n(c2=O)Cc2cc3c(CN(C)C)c(O)ccc3nc2-1 [topotecan, Topotecan HCl] ?
Resp: 36.7 mL/min/kg

***
Req: Which clearance reading was recorded for the compound O=C(O)c1cc(/N=N/c2ccc(S(=O)(=O)Nc3ccccn3)cc2)ccc1O ?
Resp: 11 mL/min/kg
